# Test target: T1, CEACAM1 antigen (Sino Biological, Inc.) (UniProt P13688 35-428)
# T1 construct: Bought antigen, coated on the ELISA plate; construct not described; also called CEACAM1 (CD66a) antigen; CD66a
# T1 sequence (looked up): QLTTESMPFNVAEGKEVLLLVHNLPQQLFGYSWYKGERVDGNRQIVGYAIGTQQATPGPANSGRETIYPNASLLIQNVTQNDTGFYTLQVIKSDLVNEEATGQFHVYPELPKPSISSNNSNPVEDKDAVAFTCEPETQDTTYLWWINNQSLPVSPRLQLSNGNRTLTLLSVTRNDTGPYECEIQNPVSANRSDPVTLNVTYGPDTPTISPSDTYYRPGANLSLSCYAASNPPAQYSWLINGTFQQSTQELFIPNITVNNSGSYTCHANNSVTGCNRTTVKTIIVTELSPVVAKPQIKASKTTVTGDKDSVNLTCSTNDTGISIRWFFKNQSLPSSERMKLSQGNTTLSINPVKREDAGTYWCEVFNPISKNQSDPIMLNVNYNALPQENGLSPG
# Run description: ELISA, CEACAM1 coated 100 ng/well, antibody at 0.51 ng/ml
# key: entry, value: OD 450 nm
Just the number in OD 450 nm, nothing appended.

binder="recombinant humanized anti-CD66c antibody Protein ID 3058 (Vk8 + VH11) (antibody, human IgG1, V domains shown, also called hu 3058; #86) VH: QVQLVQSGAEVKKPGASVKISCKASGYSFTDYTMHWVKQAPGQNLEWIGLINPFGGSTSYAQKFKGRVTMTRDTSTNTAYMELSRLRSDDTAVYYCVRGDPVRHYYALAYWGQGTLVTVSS VL: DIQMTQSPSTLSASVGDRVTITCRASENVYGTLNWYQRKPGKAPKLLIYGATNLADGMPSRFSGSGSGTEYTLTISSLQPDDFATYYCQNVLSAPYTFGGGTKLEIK" test_result=0.04
binder="recombinant humanized anti-CD66c antibody Protein ID 2938 (Vk5 + VH7) (antibody, human IgG1, V domains shown, also called hu 2938) VH: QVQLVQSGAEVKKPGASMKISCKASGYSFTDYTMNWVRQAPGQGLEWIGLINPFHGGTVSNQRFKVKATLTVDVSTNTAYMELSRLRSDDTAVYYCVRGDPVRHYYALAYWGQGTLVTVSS VL: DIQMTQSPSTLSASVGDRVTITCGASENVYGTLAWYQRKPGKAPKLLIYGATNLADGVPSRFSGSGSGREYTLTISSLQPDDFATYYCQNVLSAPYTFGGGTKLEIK" test_result=0.05
binder="recombinant humanized anti-CD66c antibody Protein ID 3043 (Vk8 + VH6) (antibody, V domains shown, also called hu 3043; #71) VH: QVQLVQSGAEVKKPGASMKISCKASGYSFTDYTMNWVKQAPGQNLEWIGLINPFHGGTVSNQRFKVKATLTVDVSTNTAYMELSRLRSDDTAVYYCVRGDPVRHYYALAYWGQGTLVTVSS VL: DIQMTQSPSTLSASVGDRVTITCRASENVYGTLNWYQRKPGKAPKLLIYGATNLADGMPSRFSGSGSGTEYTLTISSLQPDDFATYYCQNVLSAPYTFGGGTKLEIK" test_result=0.1
binder="anti-CD66c chimeric antibody 8F5 (antibody, human IgG1, V domains shown, also called chimeric 8F5; chi 8F5) VH: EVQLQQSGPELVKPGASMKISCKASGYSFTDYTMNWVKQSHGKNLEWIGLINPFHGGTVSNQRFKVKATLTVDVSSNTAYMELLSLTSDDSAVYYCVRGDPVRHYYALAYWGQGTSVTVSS VL: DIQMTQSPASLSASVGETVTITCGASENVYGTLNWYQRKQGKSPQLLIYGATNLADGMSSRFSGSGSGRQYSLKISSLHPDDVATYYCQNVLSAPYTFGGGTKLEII" test_result=0.1

Continue with the binder presented below.
Task: Return OD 450 nm for the following binder: recombinant humanized anti-CD66c antibody Protein ID 3007 (Vk7 + VH6) (antibody, human IgG1, V domains shown, also called hu 3007; #43) VH: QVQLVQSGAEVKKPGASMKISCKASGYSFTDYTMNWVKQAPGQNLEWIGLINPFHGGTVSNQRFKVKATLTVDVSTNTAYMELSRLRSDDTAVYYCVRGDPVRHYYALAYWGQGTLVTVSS VL: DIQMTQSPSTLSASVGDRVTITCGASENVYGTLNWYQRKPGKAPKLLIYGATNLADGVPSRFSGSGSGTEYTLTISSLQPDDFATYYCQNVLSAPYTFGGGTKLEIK
Output: 0.11
